molecular target: Serine/threonine-protein kinase B-raf (Homo sapiens, UniProt P15056); test: Induction of N-terminal 6x-His-tagged BRAF (unknown origin) dimer formation expressed in baculovirus infected Sf9 insect cells co-expressing mouse p50cdc37 at 200 uM measured after trypsin digestion for 30 mins by coomassie blue staining-based SDS-PAGE method
Sequence (P15056 whole entry): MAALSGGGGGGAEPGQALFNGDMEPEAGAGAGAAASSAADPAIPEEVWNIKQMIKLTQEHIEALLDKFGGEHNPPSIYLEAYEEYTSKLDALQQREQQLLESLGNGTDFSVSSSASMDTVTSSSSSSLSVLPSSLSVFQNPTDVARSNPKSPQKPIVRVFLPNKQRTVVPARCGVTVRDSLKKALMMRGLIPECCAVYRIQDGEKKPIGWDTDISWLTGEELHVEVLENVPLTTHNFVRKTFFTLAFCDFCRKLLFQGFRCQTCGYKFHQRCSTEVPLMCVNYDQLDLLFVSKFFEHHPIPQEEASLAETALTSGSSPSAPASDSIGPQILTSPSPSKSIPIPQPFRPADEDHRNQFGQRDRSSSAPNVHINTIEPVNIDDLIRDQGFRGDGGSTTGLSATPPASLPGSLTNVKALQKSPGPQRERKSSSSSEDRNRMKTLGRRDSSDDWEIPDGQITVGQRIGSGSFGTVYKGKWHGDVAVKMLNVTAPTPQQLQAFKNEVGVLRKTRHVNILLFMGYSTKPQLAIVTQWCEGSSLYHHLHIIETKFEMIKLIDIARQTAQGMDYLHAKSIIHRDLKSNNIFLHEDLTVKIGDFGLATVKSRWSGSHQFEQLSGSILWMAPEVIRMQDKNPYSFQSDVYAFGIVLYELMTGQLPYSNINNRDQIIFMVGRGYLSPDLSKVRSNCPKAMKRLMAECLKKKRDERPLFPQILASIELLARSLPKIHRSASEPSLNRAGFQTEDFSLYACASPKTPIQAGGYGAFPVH
The source made the active and inactive calls. The calls are words filed in the database; no cut-off is given here.
Outcome field: choose from active, inactive

input: Status in this test for CCCS(=O)(=O)Nc1ccc(F)c(C(=O)c2c[nH]c3ncc(-c4ccc(Cl)cc4)cc23)c1F ?
output: inactive

input: Fill in: this test's call for N#Cc1c(Oc2ccc(F)c(NC(=O)Cc3cccc(C(F)(F)F)c3)c2)ccc2nc(NC(=O)COCCOCCOCC(=O)Nc3nccs3)sc12 is ___
output: active

input: Identify the outcome logged in this assay for the molecule shown: N#Cc1c(Oc2ccc(F)c(NC(=O)Cc3cccc(C(F)(F)F)c3)c2)ccc2nc(NC(=O)COCCOCCOCC(=O)Nc3nc4ccc(Oc5ccc(F)c(NC(=O)Cc6cccc(C(F)(F)F)c6)c5)c(C#N)c4s3)sc12
output: inactive

input: Which outcome was entered for the molecule N#Cc1c(Oc2ccc(F)c(NC(=O)Cc3cccc(C(F)(F)F)c3)c2)ccc2nc(NC(=O)C3CC3)sc12 in this test?
output: active

---

target: Serine/threonine-protein kinase B-raf (Homo sapiens, UniProt P15056, V600E); experiment: Inhibition of N-terminal 6x-His-tagged BRAF V600E mutant (unknown origin) expressed in baculovirus infected Sf9 insect cells co-expressing mouse p50cdc37 using C-terminal His-tagged/N-terminal GST-tagged full length human MEK1 as substrate after 1 hr by ELISA
Sequence (P15056 2-766 V600E limits assumed): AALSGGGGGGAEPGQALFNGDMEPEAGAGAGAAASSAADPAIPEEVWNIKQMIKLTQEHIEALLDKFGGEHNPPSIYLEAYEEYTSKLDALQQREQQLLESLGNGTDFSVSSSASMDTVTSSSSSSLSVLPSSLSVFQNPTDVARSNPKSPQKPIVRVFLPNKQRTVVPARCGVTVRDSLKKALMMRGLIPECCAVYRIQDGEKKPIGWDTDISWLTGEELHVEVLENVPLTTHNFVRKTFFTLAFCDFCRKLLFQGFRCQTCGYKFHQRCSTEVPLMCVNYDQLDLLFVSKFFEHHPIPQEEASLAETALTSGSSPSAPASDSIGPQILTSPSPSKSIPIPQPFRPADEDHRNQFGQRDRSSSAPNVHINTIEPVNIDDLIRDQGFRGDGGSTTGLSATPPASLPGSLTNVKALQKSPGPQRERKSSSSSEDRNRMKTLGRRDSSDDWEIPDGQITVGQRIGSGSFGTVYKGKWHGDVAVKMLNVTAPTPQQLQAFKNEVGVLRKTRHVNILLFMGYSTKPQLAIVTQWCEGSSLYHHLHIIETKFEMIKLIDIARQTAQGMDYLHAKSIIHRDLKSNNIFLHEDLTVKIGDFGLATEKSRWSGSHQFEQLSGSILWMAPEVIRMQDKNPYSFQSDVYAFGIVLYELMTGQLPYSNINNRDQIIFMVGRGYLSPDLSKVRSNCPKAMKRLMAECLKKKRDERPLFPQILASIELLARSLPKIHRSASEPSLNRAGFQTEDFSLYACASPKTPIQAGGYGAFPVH
Can you tell me log10 IC50 for the items I'm about to list?
Scale type: logarithmic (base 10). Underlying IC50 unit: nM.

input: Entry N#Cc1c(Oc2ccc(F)c(NC(=O)Cc3cccc(C(F)(F)F)c3)c2)ccc2nc(NC(=O)COCCOCCOCCOCCOCCOCCOCC(=O)Nc3nc4ccc(Oc5ccc(F)c(NC(=O)Cc6cccc(C(F)(F)F)c6)c5)c(C#N)c4s3)sc12 needs its log10 IC50 filled in; supply it.
output: 2.55

input: Recall and state the measured log10 IC50 for N#Cc1c(Oc2ccc(F)c(NC(=O)Cc3cccc(C(F)(F)F)c3)c2)ccc2nc(NC(=O)COCCOCCOCCOCCOCC(=O)Nc3nc4ccc(Oc5ccc(F)c(NC(=O)Cc6cccc(C(F)(F)F)c6)c5)c(C#N)c4s3)sc12 .
output: 1.87

input: Write down log10 IC50 measured for item N#Cc1c(Oc2ccc(F)c(NC(=O)Cc3cccc(C(F)(F)F)c3)c2)ccc2nc(NC(=O)COCCOCCOCCOCC(=O)Nc3nc4ccc(Oc5ccc(F)c(NC(=O)Cc6cccc(C(F)(F)F)c6)c5)c(C#N)c4s3)sc12
output: 2.23

input: Return log10 IC50 (reported value) for this compound: N#Cc1c(Oc2ccc(F)c(NC(=O)Cc3cccc(C(F)(F)F)c3)c2)ccc2nc(NC(=O)COCC(=O)Nc3nc4ccc(Oc5ccc(F)c(NC(=O)Cc6cccc(C(F)(F)F)c6)c5)c(C#N)c4s3)sc12
output: 2.62

input: Determine its reported log10 IC50: N#Cc1c(Oc2ccc(F)c(NC(=O)Cc3cccc(C(F)(F)F)c3)c2)ccc2nc(NC(=O)COCCOCCOCC(=O)Nc3nc4ccc(Oc5ccc(F)c(NC(=O)Cc6cccc(C(F)(F)F)c6)c5)c(C#N)c4s3)sc12
output: 1.87

input: Entry N#Cc1c(Oc2ccc(F)c(NC(=O)Cc3cccc(C(F)(F)F)c3)c2)ccc2nc(NC(=O)C3CC3)sc12 needs its log10 IC50 filled in; supply it.
output: 0.65

---

pIC50: −log10 of the molar value.
readout: pIC50

input: Look up and report measured pIC50 (Serine/threonine-protein kinase B-raf (Homo sapiens, UniProt P15056)) for the following molecule: N#Cc1c(Oc2ccc(F)c(NC(=O)Cc3cccc(C(F)(F)F)c3)c2)ccc2nc(NC(=O)C3CC3)sc12
output: 8.15 to 8.49

input: Consider the molecule N#Cc1c(Oc2ccc(F)c(NC(=O)Cc3cccc(C(F)(F)F)c3)c2)ccc2nc(NC(=O)COCCOCCOCC(=O)Nc3nc4ccc(Oc5ccc(F)c(NC(=O)Cc6cccc(C(F)(F)F)c6)c5)c(C#N)c4s3)sc12 tested on Serine/threonine-protein kinase B-raf (Homo sapiens, UniProt P15056); state its pIC50.
output: 6.88 to 7.06

input: GET pIC50 | system: Serine/threonine-protein kinase B-raf (Homo sapiens, UniProt P15056) | item: N#Cc1c(Oc2ccc(F)c(NC(=O)Cc3cccc(C(F)(F)F)c3)c2)ccc2nc(NC(=O)COCCOCCOCCOCCOCC(=O)Nc3nc4ccc(Oc5ccc(F)c(NC(=O)Cc6cccc(C(F)(F)F)c6)c5)c(C#N)c4s3)sc12
output: 7.04 to 7.07
